Provide the reported Rel % inhibition of each item.
# measured.on: NRP-1/VEGF-A interaction (Homo sapiens, UniProt O14786)
# Construct: coated with the extracellular domain of human NRP-1 (containing the a1a2 and the b1b2 regions); purchased Fisher, Hampton, NH 50-101-8343
# Sequence (O14786 22-856 limits assumed): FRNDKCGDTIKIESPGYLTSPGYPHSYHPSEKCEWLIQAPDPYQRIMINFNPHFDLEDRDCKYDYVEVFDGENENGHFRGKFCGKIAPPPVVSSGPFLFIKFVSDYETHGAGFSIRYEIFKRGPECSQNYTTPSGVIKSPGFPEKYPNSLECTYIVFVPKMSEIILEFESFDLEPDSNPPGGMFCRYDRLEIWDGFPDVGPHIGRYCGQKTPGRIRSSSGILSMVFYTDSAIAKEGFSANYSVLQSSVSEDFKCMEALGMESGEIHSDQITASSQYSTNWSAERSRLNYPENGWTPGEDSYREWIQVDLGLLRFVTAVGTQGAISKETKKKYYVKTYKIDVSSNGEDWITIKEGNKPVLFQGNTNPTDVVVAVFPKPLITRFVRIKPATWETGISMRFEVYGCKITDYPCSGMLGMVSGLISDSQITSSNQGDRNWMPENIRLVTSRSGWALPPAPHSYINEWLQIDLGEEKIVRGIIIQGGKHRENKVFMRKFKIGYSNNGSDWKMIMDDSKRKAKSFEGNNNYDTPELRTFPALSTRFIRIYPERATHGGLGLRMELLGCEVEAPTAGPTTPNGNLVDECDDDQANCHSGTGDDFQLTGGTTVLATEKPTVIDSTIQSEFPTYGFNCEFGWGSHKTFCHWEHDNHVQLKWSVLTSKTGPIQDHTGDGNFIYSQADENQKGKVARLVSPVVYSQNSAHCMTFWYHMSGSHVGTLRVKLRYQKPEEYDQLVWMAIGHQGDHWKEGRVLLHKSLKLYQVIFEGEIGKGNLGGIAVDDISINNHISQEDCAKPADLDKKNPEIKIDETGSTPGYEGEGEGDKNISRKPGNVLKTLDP
# assay.text: ELISA-based NRP1-VEGF-A165 protein binding assay (single concentration)
# experimental.context: compounds 12.5 μM (Spike S1 100 nM), biotinylated VEGF-A165 10 nM; ± standard error of the mean, n = 11
Give the value, in units of %, as a plain number.

In one line, give reported Rel % inhibition of the entry Cc1cc(CN(C)Cc2cc(=O)[nH]c(=O)[nH]2)no1 .
43

In one line, give reported Rel % inhibition of the entry COc1ccccc1Nc1nc(-c2cnc(N3CCCC3)nc2C)cc(=O)[nH]1 .
42

In one line, give reported Rel % inhibition of the entry COc1ccccc1Nc1nncc(=O)[nH]1 .
18

In one line, give reported Rel % inhibition of the entry Cc1nc(N2CCOCC2)ncc1-c1cc(=O)[nH]c(Nc2ccccc2)n1 .
68

In one line, give reported Rel % inhibition of the entry CC(C)Cc1cc(C(=O)NCC2CCOC2)nc(=O)[nH]1 (stereo not shown) .
59

In one line, give reported Rel % inhibition of the entry O=C(O)Cc1cnc(-c2cccnc2)[nH]c1=O .
43

In one line, give reported Rel % inhibition of the entry O=C(/C=C/c1ccc(O)c(O)c1)O[C@@H](C(=O)O)[C@@H](O)C(=O)O .
12

In one line, give reported Rel % inhibition of the entry COc1cccc(-c2cc(=O)[nH]c(Nc3ccccc3)n2)c1 .
56

In one line, give reported Rel % inhibition of the entry NC(N)=NCCC[C@H](NC(=O)c1sccc1NS(=O)(=O)c1cccc2nsnc12)C(=O)O [EG00229, reference compound] .
33

In one line, give reported Rel % inhibition of the entry O=c1cnnc(Nc2ccccc2O)[nH]1 .
24
